- Tested on: MDA-MB-231 breast
- TEST_SUMMARY: NCI tumour cell line growth inhibition, 48 h
Task for the reader: assign each of the following molecules its reported GI50.

The value of GI50 measured for the molecule "O=C(Cc1csc2nc(-c3ccc(Cl)cc3)cn12)N/N=C/c1ccccc1O" turned out to be 13.1 µM

The value of GI50 measured for the molecule "O=C(Nc1cccc(-n2cc(-c3ccncc3)c(-c3ccc(O)c(Cl)c3)n2)c1)c1cc(C(F)(F)F)cc(C(F)(F)F)c1" turned out to be 0.889 µM

The value of GI50 measured for the molecule "CCN(CC)c1ccc2nc3c4ccccc4c(=O)cc-3n(-c3ccccc3)c2c1" turned out to be 2.22 µM

The value of GI50 measured for the molecule COc1ccccc1/C=C/C1=C(C)CCC(c2ccccc2OC)C1C (centres undefined) turned out to be 0.157 µM

The value of GI50 measured for the molecule "ClCc1ccc(Cn2cnc3c(Cl)ncnc32)cc1" turned out to be 10.4 µM

The value of GI50 measured for the molecule "CCOC(=O)c1c(NC(=O)c2ccccc2)sc2c3c(ccc12)OCN(C)C3" turned out to be 1.85 µM

The value of GI50 measured for the molecule CC[C@]1(O)CC2CN(CCc3c([nH]c4ccccc34)[C@@](C(=O)OC)(c3cc4c(cc3OC)N(C=O)[C@H]3[C@@](O)(C(=O)OC)[C@H](OC(C)=O)[C@]5(CC)C=CCN6CC[C@]43[C@@H]65)C2)C1 (some centres undefined) turned out to be < 0.005 µM

The value of GI50 measured for the molecule "N#Cc1ccccc1C#C/C=C\C#CC#C/C=C\C#Cc1ccccc1C#N" turned out to be 8.76 µM

The value of GI50 measured for the molecule CCN(CC)CCC(CNc1ccnc2cc(Cl)ccc12)c1ccccc1 (centres undefined) turned out to be 2.18 µM
